- assay target: T1, human chemokine (C-C motif) receptor 8 (CCR8) protein (human, UniProt P51685 1-355)
- T1 construct: whole, on cells; also called human CCR8
- protocol text: cell binding, CCR8-expressing CHO-K1 cells, curve fit
- Design: unit not given here
test readout: LogEC50
API note: the answer field is a bare number with no unit suffix.

Known LogEC50 results, listed for orientation:
137-H2L3 (antibody, V domains shown, Humanized 137D1H10) VH: EVQLVESGGGLVQPGGSLKLSCAASGFTFNTYAMNWVRQASGKGLEWVGRIRSKANNYATYYADSVKDRFTISRDDSKNTAYLQMNNLKTEDTAVYYCVRDRSRGEDYAMDYWGQGTLVTVSS VL: DIVMTQSPLSLPVTPGEPVSISCRSSKSLLHSNANTYLYWFLQKPGQSPQLLIYRMSNLASGVPDRFSGSGSGTAFTLKISRVEAEDVGVYYCMQHLEYPFTFGQGTKLEIK | -0.505
137-H2L2 (antibody, V domains shown, Humanized 137D1H10) VH: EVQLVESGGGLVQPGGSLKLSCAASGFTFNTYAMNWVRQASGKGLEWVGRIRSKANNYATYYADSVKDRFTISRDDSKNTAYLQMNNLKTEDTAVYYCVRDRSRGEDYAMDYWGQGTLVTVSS VL: DIVMTQSPLSLPVTPGEPASISCRSSKSLLHSNANTYLYWFLQKPGQSPQLLIYRMSNLASGVPDRFSGSGSGTAFTLKISRVEAEDVGVYYCMQHLEYPFTFGQGTKLEIK | -0.789
137-H3L2 (LM-108) (antibody, V domains shown, Humanized 137D1H10; Detected with anti-human IgG) VH: EVQLVESGGGLVQPGGSLKLSCAASGFTFNTYAMNWVRQASGKGLEWVARIRSKANNYATYYADSVKDRFTISRDDSKNTLYLQMNNLKTEDTAVYYCVRDRSRGEDYAMDYWGQGTLVTVSS VL: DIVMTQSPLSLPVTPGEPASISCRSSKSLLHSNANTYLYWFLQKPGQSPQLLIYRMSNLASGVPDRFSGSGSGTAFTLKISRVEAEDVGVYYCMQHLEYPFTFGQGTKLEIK | -0.684

Bench note: what LogEC50 did 137-H3L3 (antibody, V domains shown, Humanized 137D1H10) VH: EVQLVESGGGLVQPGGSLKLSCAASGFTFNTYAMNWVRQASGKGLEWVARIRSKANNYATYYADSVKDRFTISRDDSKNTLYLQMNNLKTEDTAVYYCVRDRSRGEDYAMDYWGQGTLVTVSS VL: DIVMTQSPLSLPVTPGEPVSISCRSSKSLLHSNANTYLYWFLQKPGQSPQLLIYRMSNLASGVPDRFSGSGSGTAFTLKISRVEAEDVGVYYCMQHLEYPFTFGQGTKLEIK show? -0.754

Would you mind telling me what LogEC50 value was observed for 137-xi (antibody, V domains shown, also called 137D1H10; chimeric 137D1H10) VH: EVQLVESGGGLVQPKGSLKLSCTASGFTFNTYAMNWVRQAPGKGLEWVARIRSKANNYATYYADSVKDRFTISRDDSQRILYLQMNNLKAEDTAMYYCVRDRSRGEDYAMDYWGQGTSVTVSS VL: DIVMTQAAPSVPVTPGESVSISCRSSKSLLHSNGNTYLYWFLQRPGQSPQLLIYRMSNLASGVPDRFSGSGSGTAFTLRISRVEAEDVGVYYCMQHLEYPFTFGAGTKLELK ? -0.779
